Provide the reported protein stability index of each item.
B1: C10orf62 (parent)
chain: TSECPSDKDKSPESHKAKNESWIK

# Variants of: B1
# assay-method-text: protein stability index of a GFP-peptide fusion (GPS, HEK-293T) (PSI 1-6); higher = more stable;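 also: lentivirally expressed fusions sorted by FACS into six bins by GFP to DsRed ratio, PSI derived from sequencing read proportions per bin multiplied by bin number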
# assay-setup: c terminus: a fixed tail appended
Format: numeric value only, no unit, no commentary.

Record request: protein stability index value, item `A17K` 2.93

protein stability index lookup needed for `P12Q` , thanks. 3.79

Item `P12Y` has what recorded protein stability index? 2.74

If you can, please state the reported protein stability index value of `W22S` . 5.82

Entry `S14L` has what protein stability index? 3.48

# protein stability index lookup, item `K10E` 4

Return reported protein stability index; argument: `W22Y` 5.23

protein stability index lookup needed for `P12D` , thanks. 3.83

State the recorded protein stability index for this entry: `E13N` 3.43

Can you share its protein stability index? I mean this variant: `K24A` 2.9

Quick check: protein stability index of `E20N` ? 4.69

Please give the measured protein stability index for this variant: `E3K` 2.92

Form field: reported protein stability index of `E3C` 3.01

// returns reported protein stability index for input `H15N` 2.69

I'd like to know its protein stability index. The variant in question is `D7R` 2.35

I'd like to know its protein stability index. The variant in question is `N19M` 3.64

Any idea what its protein stability index is? The variant is `H15E` 3.84

Data request, read-out protein stability index, for `K18N` 3.6

# protein stability index lookup, item `K16N` 3.67

Dear colleague, I am looking for the recorded protein stability index of the following variant: `K10I` 3.25

// returns reported protein stability index for input `E13C` 3.35

protein stability index for `S14D` ? 4.49

Which value of protein stability index has been reported for `K10Y` in the records? 2.94

# lookup: protein stability index of `S2N` 3.74

What does the record list as protein stability index for `S11F` ? 2.98

Any idea what protein stability index was measured for `S2T` ? 3.03

# lookup: protein stability index of `P5E` 3.84

I am curious: what protein stability index value has been reported for `E20A` ? 5.18

For the variant `S14T` , what protein stability index is on record? 3.41

I am curious: what protein stability index value has been reported for `E13I` ? 2.44

Consider the variant shown here: `N19I` What is its recorded protein stability index? 4.02

Look up protein stability index for this variant: `S14I` 3.66

Given the entry `A17L` , report its measured protein stability index. 3.64

Consider the variant `C4L` and give its measured protein stability index. 3.74

Which measured protein stability index value corresponds to `E13V` ? 2.77

Need protein stability index of `K8T` , thanks. 3.45

Would you mind telling me what protein stability index value was observed for `P5V` ? 4.14

Form field: reported protein stability index of `K16T` 4.35

Entry under review: `P5Y` . Reported protein stability index? 3.59

# get_value(readout='protein stability index', item= `K8G` ) 4.03

protein stability index for `W22F` ? 5.62

Return reported protein stability index; argument: `A17I` 4.17

So what's the measured protein stability index for this one? `K10H` 3.53

Any idea what protein stability index was measured for `S21K` ? 4.84

So what's the measured protein stability index for this one? `S14C` 3.52

Consider the variant shown here: `K8H` What is its recorded protein stability index? 3.15
